Sourced from paper PMC3285636

assay_target: human DDC (Homo sapiens, UniProt P20711)
Construct: made in house
Sequence (P20711 whole entry): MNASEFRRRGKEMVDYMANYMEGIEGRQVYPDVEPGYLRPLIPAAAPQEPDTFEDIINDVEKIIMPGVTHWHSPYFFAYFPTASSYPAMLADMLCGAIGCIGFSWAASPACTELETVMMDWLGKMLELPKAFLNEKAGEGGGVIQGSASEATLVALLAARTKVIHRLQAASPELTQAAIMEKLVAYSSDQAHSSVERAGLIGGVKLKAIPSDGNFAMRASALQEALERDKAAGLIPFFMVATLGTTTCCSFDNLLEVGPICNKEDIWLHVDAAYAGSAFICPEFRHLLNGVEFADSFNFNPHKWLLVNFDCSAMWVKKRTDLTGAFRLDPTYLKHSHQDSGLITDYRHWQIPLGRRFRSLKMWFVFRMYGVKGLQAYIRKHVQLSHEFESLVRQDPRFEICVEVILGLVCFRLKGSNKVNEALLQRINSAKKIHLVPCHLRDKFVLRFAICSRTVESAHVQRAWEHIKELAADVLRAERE
assay_name: Assay of the inhibitory activity: spectrophotometric measurement of dopamine production by DDC
Format: biochemical
condition_summary: binding energy per unit of mass, from Ki and molecular weight in kDa
value_kind: BE (binding efficiency)
Give bare numbers.

Some solved entries appear below for comparison.
Oc1cccc(/C=N/n2c(S)nnc2-c2ccc(Cl)cc2Cl)c1O = 13.0
Oc1cccc(/C=N/n2c(S)nnc2-c2ccc(Cl)cc2Cl)c1 = 12.1
O=C(Nc1ccccc1)c1ccccc1NS(=O)(=O)c1ccc2[nH]c(=O)[nH]c2c1 = 13.1

// switching to the query compound
// map O=C(O)c1cccc(NS(=O)(=O)c2ccc3nnn(O)c3c2)c1 to recorded BE (binding efficiency) (system: human DDC (Homo sapiens, UniProt P20711))
11.9

====

assay_target: human DDC (Homo sapiens, UniProt P20711)
Construct: made in house
assay_name: Assay of the inhibitory activity: spectrophotometric measurement of dopamine production by DDC
Assay type: biochemical
condition_summary: mixed or noncompetitive inhibition; 0.1 M potassium phosphate pH 7.4, 25°C; from Lineweaver–Burk plots
value_kind: Ki′ (µM)
Give bare numbers, in µM.

Example cases with answers are listed next.
O=C1C(=Cc2ccc(O)c(O)c2)C(=O)c2ccccc21 [Compound 10] = 23.1
Oc1ccc(C=Nn2c(S)nnc2-c2ccccc2)c(O)c1 [Compound 27] = 43.1
Oc1ccccc1/C=N/n1c(S)nnc1-c1ccc(F)cc1 [Compound 33] = 325
Oc1ccc(/C=N/n2c(S)nnc2-c2ccccc2)c(O)c1O [Compound 22] = 46.7
Oc1c(Br)cc(Br)cc1/C=N/n1c(S)nnc1-c1ccc(Cl)cc1Cl [Compound 32] = 17

Now let's try a different one.
Could you share which Ki′ value was measured for Oc1ccccc1/C=N/n1c(S)nnc1-c1ccccc1Cl [Compound 29] ?
208

====

assay_target: human DDC (Homo sapiens)
Construct: made in house
assay_name: Assay of the inhibitory activity: spectrophotometric measurement of dopamine production by DDC
Assay type: biochemical
condition_summary: type of inhibition from Lineweaver–Burk plots
value_kind: Inhibition profile

Solved entries (count: 10):
Oc1ccc(/C=N/n2c(S)nnc2-c2ccc(Cl)cc2Cl)cc1O = competitive inhibitors
Oc1cccc(/C=N/n2c(S)nnc2-c2ccccc2Cl)c1 = competitive inhibitors
O=C(Nc1ccccc1)c1ccccc1NS(=O)(=O)c1ccc2[nH]c(=O)[nH]c2c1 = competitive inhibitors
Oc1ccccc1/C=N/n1c(S)nnc1-c1ccccc1 = competitive inhibitors
Oc1cccc(/C=N/n2c(S)nnc2-c2ccccc2)c1O = competitive inhibitors
Oc1ccc(/C=N/n2c(S)nnc2-c2ccccc2)cc1O = competitive inhibitors
Oc1ccc(/C=N/n2c(S)nnc2-c2ccccc2Cl)cc1O = competitive inhibitors
Oc1ccccc1/C=N/n1c(S)nnc1-c1ccc(F)cc1 = mixed mode
Oc1ccc(/C=N/n2c(S)nnc2-c2ccc(Cl)cc2Cl)cc1 = competitive inhibitors
O=C(O)c1cccc(NS(=O)(=O)c2ccc3nnn(O)c3c2)c1 = competitive inhibition

Items follow; give Inhibition profile for each.
1. Oc1ccc(/C=N/n2c(S)nnc2-c2ccccc2)c(O)c1O
2. O=C(O)c1ccccc1NS(=O)(=O)c1ccc2[nH]c(=O)[nH]c2c1
3. Oc1cccc(/C=N/n2c(S)nnc2-c2ccc(Cl)cc2Cl)c1
4. O=S(=O)(c1ccc2nnn(O)c2c1)N1CCCCC1
5. Oc1ccccc1/C=N/n1c(S)nnc1-c1ccccc1Cl

1: mixed mode; 2: competitive inhibitors; 3: competitive inhibitors; 4: competitive inhibition; 5: mixed mode

May I ask what Inhibition profile has been recorded for Oc1ccc(/C=N/n2c(S)nnc2-c2ccc(Cl)cc2)cc1O ?
competitive inhibitors
